Value source: paper PMC8175350

# Protocol Description: in vitro
# Test Conditions: human, Calu-3 Uninf. cells CC50 (µM), reconfirmed hits
Metric: CC50

compound="C=Cc1cc(C(=O)Nc2ccc(C(=N)N)cc2)c(-c2ccc(C(=O)NCC3CC3)nc2C(=O)O)cc1OC [Avoralstat]" result="> 30 µM"
compound="CCC(CC)COC(=O)[C@H](C)N[P@](=O)(OC[C@H]1O[C@@](C#N)(c2ccc3c(N)ncnn23)[C@H](O)[C@@H]1O)Oc1ccccc1 [Remdesivir]" result="> 30 µM"

====

Each record here notes measured EC50.
# Test system: HeLa-ACE2 cells
# Protocol Description: cells
# Test Conditions: Homo sapiens, HeLa-ACE2, read-out: HeLa-ACE2 cell count EC50 GeoMean (µM), geometric mean of replicates
Counter-ions that a name gives are not always drawn.
Metric: EC50

compound=O=c1[nH]ccc2cc(OC3CCNCC3)ccc12 metric=EC50 result="> 9.59 µM"
compound=CC(=N)N1CCC(Oc2ccc(N(Cc3ccc4ccc(C(=N)N)cc4c3)S(=O)(=O)CC(=O)O)cc2)CC1 metric=EC50 result="> 9.59 µM"
compound="CSc1ccc(CN2CCCC(Nc3ccc4[nH]ncc4c3)C2)cc1 (stereo not shown)" metric=EC50 result="> 9.59 µM"
compound=NC(N)=Nc1ncc(Cl)c2ccc(-c3cccc(C(=O)O)c3)cc12 metric=EC50 result="> 9.59 µM"
compound="CCCCCC[C@H]1C(=O)O[C@H](C)[C@H](NC(=O)c2cccc(NC=O)c2O)C(=O)O[C@@H](C)[C@@H]1OC(=O)CC(C)C [Antimycin A]" metric=EC50 result="> 9.59 µM"
compound=N=C(N)c1ccc2cc(OC(=O)c3ccc(CNC(=O)CCCC(=O)O)o3)ccc2c1 metric=EC50 result="> 9.59 µM"
compound="O=C(Nc1ccc(Cl)c(S(=O)(=O)N2CCNCC2)c1O)Nc1cccc(F)c1Cl [Elubrixin tosylate]" metric=EC50 result="> 9.59 µM"
compound=CC(C)(C)c1ccc(CSc2cnn(C(C)(C)C)c(=O)c2Cl)cc1 metric=EC50 result="> 9.59 µM"
compound=CCOc1ccc(Cc2nc3cc(N(C)S(=O)(=O)c4cccs4)ccc3n2CC2CCCCC2)nc1 metric=EC50 result="> 9.59 µM"
compound=O=c1[nH]c2ccc(C(F)(F)F)cc2c(-c2cc(Cl)ccc2O)c1CCO metric=EC50 result="> 9.59 µM"
compound=CC(=O)N1C[C@H](O)C[C@H]1C(=O)N[C@@H](CCCNC(=N)N)C(=O)c1nc2ccccc2s1 metric=EC50 result="> 9.59 µM"
compound="CN(C)C(C(=O)Nc1ccc2c(=O)[nH]ccc2c1)c1ccsc1 (stereo not shown)" metric=EC50 result="> 9.59 µM"
compound=O[C@@H]1CO[C@H]2[C@@H]1OC[C@H]2Oc1nc2nc(-c3ccc(-c4ccccc4)cc3)c(Cl)cc2[nH]1 metric=EC50 result="> 9.59 µM"
compound=CC/C(=C(/c1ccc(/C=C/C(=O)O)cc1)c1ccc2[nH]ncc2c1)c1ccc(F)cc1Cl metric=EC50 result="> 9.59 µM"
compound=N=C(N)Nc1ccc(C(=O)Oc2ccc(S(N)(=O)=O)cc2)cc1 metric=EC50 result="> 9.59 µM"
compound="N#Cc1cccc(C(C(=O)NCC(c2ccccc2)c2ccccc2)N(CCc2c[nH]cn2)C(=O)c2ccccc2C(=O)c2ccccc2)c1 (stereo not shown)" metric=EC50 result="> 9.59 µM"

====

Each record here notes measured HepG2 72-hour cytotoxicity Sinf Average.
# System: HepG2
# Test Conditions: human, 72 h
Metric: HepG2 72-hour cytotoxicity Sinf Average (%)

compound=N#Cc1ccc2c(c1)[C@H]1CN(CCCCNC(=O)c3ccc(-c4ccccc4)cc3)C[C@@H]1CO2 assay_target=HepG2 units_of_measure=% result_number=-100
compound="Cc1cccc(/C=N/Nc2cc(N3CCOCC3)nc(OCCc3ccccn3)n2)c1 [Apilimod - control]" assay_target=HepG2 units_of_measure=% result_number=-69
compound="COC(CNCC(C)C)COc1c(C)csc1C(=O)CCc1ccccc1 (centres unmarked)" assay_target=HepG2 units_of_measure=% result_number=-100
compound=Cc1cccc(/C=N/Nc2cc(N3CCOCC3)n3nc(-c4ccncc4)cc3n2)c1 assay_target=HepG2 units_of_measure=% result_number=-100
compound=CC(C)Oc1ccc(-c2nc(-c3cccc4c3CC[C@@H]4NCCO)no2)cc1C#N assay_target=HepG2 units_of_measure=% result_number=-103
compound=Nc1ncnc2c1nc(Cl)n2[C@@H]1O[C@H](CO)[C@@H](O)[C@H]1O assay_target=HepG2 units_of_measure=% result_number=-69
compound=COc1ccc2cc1Oc1ccc(cc1)C[C@H]1c3c(cc4c(c3Oc3cc5c(cc3OC)CCN(C)[C@@H]5C2)OCO4)CCN1C assay_target=HepG2 units_of_measure=% result_number=-100
compound=CN1CCN(c2ccc(C(=O)NCc3cnc(C#N)nc3NCC(C)(C)C)cc2)CC1 assay_target=HepG2 units_of_measure=% result_number=-100

====

# Protocol Description: Uninfected HeLa-ACE2 24 h live/dead cytotoxicity counter screen
# Format: cell-based, human
# Test Conditions: human, uninfected HeLa-ACE2 cells; read-out: HeLa-ACE2 uninfected cytotoxicity CC50 GeoMean
Where a name gives a salt, the structure may show the parent alone.
Metric: CC50 at 24 h

compound=CC[C@H]1OC(=O)[C@H](C)[C@@H](O[C@H]2C[C@@](C)(OC)[C@@H](O)[C@H](C)O2)[C@H](C)[C@@H](O[C@@H]2O[C@H](C)C[C@H](N(C)C)[C@H]2O)[C@](C)(O)C[C@@H](C)CN(C)[C@H](C)[C@@H](O)[C@]1(C)O metric="CC50 at 24 h" result="> 39.8 µM"
compound="OC(CNCC(O)C1CCc2cc(F)ccc2O1)C1CCc2cc(F)ccc2O1 (stereo not drawn) [Nebivolol HCl]" metric="CC50 at 24 h" result="> 11.1 µM"
compound=Nc1nc(Nc2ccc3c(c2)CC[C@@H](N2CCCC2)CC3)nn1-c1cc2c(nn1)-c1ccccc1CCC2 metric="CC50 at 24 h" result="15.7 µM"
compound="COC(=O)C1=C(C)NC(C)=C(C(=O)OCCN2CCN(C(c3ccccc3)c3ccccc3)CC2)C1c1cccc([N+](=O)[O-])c1 (stereo not drawn)" metric="CC50 at 24 h" result="> 17.1 µM"
compound=Cc1cccc(/C=N/Nc2cc(N3CCOCC3)n3nc(-c4ccncc4)cc3n2)c1 metric="CC50 at 24 h" result="> 39.4 µM"
compound="Cc1c(-c2ccc(O)cc2)n(Cc2ccc(OCCN3CCCCCC3)cc2)c2ccc(O)cc12 [Bazedoxifene acetate]" metric="CC50 at 24 h" result="> 20.7 µM"

====

# Tested on: SARS-CoV-2
# Protocol Description: microbe, parasite or virus in culture
# Assay type: cell-based
# Test Conditions: Severe acute respiratory syndrome coronavirus 2, HeLa-ACE2; read-out: HeLa-ACE2 CoV-2 EC50 GeoMean
Each record here notes measured EC50.
Metric: EC50 (µM)

compound="CNC(=O)c1cc(Oc2ccc(NC(=O)Nc3ccc(Cl)c(C(F)(F)F)c3)cc2)ccn1 [Sorafenib]" metric=EC50 units_of_measure=µM lt_gt_eq=> result_number=5.67
compound="COc1cc(-n2cnc3cc(-c4ccc(Cl)cc4)sc3c2=O)ccc1OCCN1CCCC1 [GW-803430]" metric=EC50 units_of_measure=µM lt_gt_eq== result_number=1.7
compound="COc1cc(C[C@H]2c3cc(OC)c(OC)cc3CCN2C)c(Oc2cc3c(cc2OC)-c2c(OC)c(OC)cc4c2[C@H](C3)N(C)CC4)cc1OC [Thalicarpine]" metric=EC50 units_of_measure=µM lt_gt_eq== result_number=0.582
compound="C[C@H]1O[C@@H](O[C@H]2[C@@H](O)C[C@H](O[C@H]3[C@@H](O)C[C@H](O[C@H]4CC[C@@]5(C)[C@H](CC[C@@H]6[C@@H]5C[C@@H](O)[C@]5(C)[C@@H](C7=CC(=O)OC7)CC[C@]65O)C4)O[C@@H]3C)O[C@@H]2C)C[C@H](O)[C@@H]1O [Digoxin]" metric=EC50 units_of_measure=µM lt_gt_eq== result_number=0.166
compound="Cc1c(-c2ccc(O)cc2)n(Cc2ccc(OCCN3CCCCCC3)cc2)c2ccc(O)cc12 [Bazedoxifene acetate]" metric=EC50 units_of_measure=µM lt_gt_eq== result_number=2.89

====

# Tested on: HeLa-ACE2 cells
# Protocol Description: Uninfected HeLa-ACE2 24 h live/dead cytotoxicity counter screen
# Format: cell-based, human
# Test Conditions: human, uninfected HeLa-ACE2 cells, 24 h
Where a name gives a salt, the structure may show the parent alone. Residues, ends and D or L forms follow the SMILES beside them. *: point of attachment. Cbz = O=C(OCc1ccccc1)*; CHN2 = [N-]=[N+]=C*
Each record here notes measured HeLa-ACE2 uninfected cytotoxicity Sinf Average.
Metric: HeLa-ACE2 uninfected cytotoxicity Sinf Average (%)

compound="CCCCN(CCCC)CCC(O)c1cc2c(Cl)cc(Cl)cc2c2cc(C(F)(F)F)ccc12 (stereo not shown) [Halofantrine HCl]" units_of_measure=% result_number=-100
compound="CC(C)CC(NC(=O)OCc1ccccc1)C(=O)NC(C(=O)NCC(=O)C=[N+]=[N-])C(C)C (stereo not drawn) [Z LVG CHN2] (Cbz-Leu-Val-Gly-CHN2; configuration not given here)" units_of_measure=% result_number=-100
compound=CCN(CC)CCCNc1ccnc2cc(Cl)ccc12 units_of_measure=% result_number=-100
compound="CCCCC1CCc2cc(O)cc3c(CCN4CCN(c5cc(C)ccn5)CC4)c(C)n1c23 (stereo not shown)" units_of_measure=% result_number=-100
compound=CCCCc1oc2ccccc2c1C(=O)c1cc(I)c(OCCN(CC)CC)c(I)c1 units_of_measure=% result_number=-101
compound="OC(CNCC(O)C1CCc2cc(F)ccc2O1)C1CCc2cc(F)ccc2O1 (stereo not shown) [Nebivolol HCl]" units_of_measure=% result_number=-103
compound=CCCCN1CC[C@H](c2ccc(N(C)C)cc2)[C@@H](COc2ccc(C(F)(F)F)cc2)C1 units_of_measure=% result_number=-100
compound=Nc1nc(Nc2ccc3c(c2)CC[C@@H](N2CCCC2)CC3)nn1-c1cc2c(nn1)-c1ccccc1CCC2 units_of_measure=% result_number=-101
compound=COc1ccc2c(O[C@@H]3C[C@H]4C(=O)N[C@]5(C(=O)NS(=O)(=O)C6CC6)C[C@H]5/C=C\CCCCN(C)C(=O)[C@@H]4C3)cc(-c3nc(C(C)C)cs3)nc2c1C units_of_measure=% result_number=-100
compound=CC(C)Oc1ccc(-c2nc(-c3cccc4c3CC[C@@H]4NCCO)no2)cc1C#N units_of_measure=% result_number=-101
compound=Cc1cccc(/C=N/Nc2cc(N3CCOCC3)nc(OCCc3ccccn3)n2)c1 units_of_measure=% result_number=-100
compound="CCN(CCO)CCCC(C)Nc1ccnc2cc(Cl)ccc12 (stereo not shown) [Hydroxychloroquine sulfate]" units_of_measure=% result_number=-99
compound=Cc1cccc(/C=N/Nc2cc(N3CCOCC3)n3nc(-c4ccncc4)cc3n2)c1 units_of_measure=% result_number=-100
